Data origin: paper PMC10397247

# TARGET: T1, P4A-bH
# T1 chain: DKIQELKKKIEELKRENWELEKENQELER
# PROTOCOL_NOTES: two-hybrid library CCNG1;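 further: natural log of median RNA to DNA barcode read ratio; higher means stronger binding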

| BINDER | interaction score |
| --- | --- |
| DEIQELEKEIEELERKNWELKKKNQELKR [P3A-bH] | 1.77 |
| DEIQELEKENEELERENWELEKEIQELER [P1A-bH] | -0.5 |
| DENQELEKEIEELEREIWELEKKNQELKR [P11A-bH] | 1.83 |
| DKNQELKKKIEELKRKIWELKKENQELER [P12A-bH] | -0.357 |
| DKIQELKKKNEELKRKNWELKKKIQELKR [P2A-bH] | 0.539 |
| DKNAQLKQEIAELEQEIAELEWKNAQLKQ [4H3592-bA] | 1.36 |
